runDescription: observed amide hydrogen exchange rate constant kobs (stretched exponential fit, FD-normalized) (s^-1); higher = faster H/D exchange (less protection)
experimentalConditions: pH 3 (pH read); temperature: 20 °C; D2O: 88%
measuredAttribute: observed amide hydrogen exchange rate constant kobs

substance	result
LVQAFQFTDK	0.00109
NFSDNQLQEGK	0.00213
EDQTEYLEER	0.00222
IYVDDGLISLQVK	0.000841
SAEFLLHMLK	0.00118
FLPLFDR	0.00116
GALQNIIPASTGAAK	0.000988
ESKDPADETEAD	0.00321
LVPGGGATEIELAK	0.00089
GPDGLTAFEATDNQAIK	0.00114
